# Tested on: SNB-19
# Experimental details: NCI tumour cell line growth inhibition, 48 h
Activity calls are given as the source filed them. No stated cut-off is given here; in the data, active = GI50 up to about 1.1 µM and inactive = higher.
Entries and their measured GI50 follow.
Reported metric: GI50

Compound	Reported metric	Experimental result
CSc1nc(NC2OCC(OC(C)=O)C(OC(C)=O)C2OC(C)=O)c(/N=C\C=N\c2c(NC3OCC(OC(C)=O)C(OC(C)=O)C3OC(C)=O)nc(SC)n(C)c2=O)c(=O)n1C (centres undefined)	GI50	38.4 µM (inactive)
C=C(CO)C(=O)OC1CC(=C)C2CC(O)C(C)C2C2OC(=O)C(=C)C12 (centres undefined)	GI50	22.9 µM (inactive)
O=C1CC(c2cccc(Cl)c2)Oc2ccccc21 (centres undefined)	GI50	15.3 µM (inactive)
NC(=O)CSc1nc2ccccc2c(=O)n1N	GI50	> 100 µM (inactive)
